B1: Flag-PLK4 wt (polo-like kinase 4), full-length [human] / CEP152, endogenous [human (endogenous in HEK293T)] (parent complex)
chain 1: MATCIGEKIEDFKVGNLLGKGSFAGVYRAESIHTGLEVAIKMIDKKAMYKAGMVQRVQNEVKIHCQLKHPSILELYNYFEDSNYVYLVLEMCHNGEMNRYLKNRVKPFSENEARHFMHQIITGMLYLHSHGILHRDLTLSNLLLTRNMNIKIADFGLATQLKMPHEKHYTLCGTPNYISPEIATRSAHGLESDVWSLGCMFYTLLIGRPPFDTDTVKNTLNKVVLADYEMPSFLSIEAKDLIHQLLRRNPADRLSLSSVLDHPFMSRNSSTKSKDLGTVEDSIDSGHATISTAITASSSTSISGSLFDKRRLLIGQPLPNKMTVFPKNKSSTDFSSSGDGNSFYTQWGNQETSNSGRGRVIQDAEERPHSRYLRRAYSSDRSGTSNSQSQAKTYTMERCHSAEMLSVSKRSGGGENEERYSPTDNNANIFNFFKEKTSSSSGSFERPDNNQALSNHLCPGKTPFPFADPTPQTETVQQWFGNLQINAHLRKTTEYDSISPNRDFQGHPDLQKDTSKNAWTDTKVKKNSDASDNAHSVKQQNTMKYMTALHSKPEIIQQECVFGSDPLSEQSKTRGMEPPWGYQNRTLRSITSPLVAHRLKPIRQKTKKAVVSILDSEEVCVELVKEYASQEYVKEVLQISSDGNTITIYYPNGGRGFPLADRPPSPTDNISRYSFDNLPEKYWRKYQYASRFVQLVRSKSPKITYFTRYAKCILMENSPGADFEVWFYDGVKIHKTEDFIQVIEKTGKSYTLKSESEVNSLKEEIKMYMDHANEGHRICLALESIISEEERKTRSAPFFPIIIGRKPGSTSSPKALSPPPSVDSNYPTRERASFNRMVMHSAASPTQAPILNPSMVTNEGLGLTTTASGTDISSNSLKDCLPKSAQLLKSVFVKNVGWATQLTSGAVWVQFNDGSQLVVQAGVSSISYTSPNGQTTRYGENEKLPDYIKQKLQCLSSILLMFSNPTPNFH
chain 2: MSLDFGSVALPVQNEDEEYDEEDYEREKELQQLLTDLPHDMLDDDLSSPELQYSDCSEDGTDGQPHHPEQLEMSWNEQMLPKSQSVNGYNEIQSLYAGEKCGNVWEENRSKTEDRHPVYHPEEGGDEGGSGYSPPSKCEQTDLYHLPENFRPYTNGQKQEFNNQATNVIKFSDPQWNHFQGPSCQGLEPYNKVTYKPYQSSAQNNGSPAQEITGSDTFEGLQQQFLGANENSAENMQIIQLQVLNKAKERQLENLIEKLNESERQIRYLNHQLVIIKDEKDGLTLSLRESQKLFQNGKEREIQLEAQIKALETQIQALKVNEEQMIKKSRTTEMALESLKQQLVDLHHSESLQRAREQHESIVMGLTKKYEEQVLSLQKNLDATVTALKEQEDICSRLKDHVKQLERNQEAIKLEKTEIINKLTRSLEESQKQCAHLLQSGSVQEVAQLQFQLQQAQKAHAMSANMNKALQEELTELKDEISLYESAAKLGIHPSDSEGELNIELTESYVDLGIKKVNWKKSKVTSIVQEEDPNEELSKDEFILKLKAEVQRLLGSNSMKRHLVSQLQNDLKDCHKKIEDLHQVKKDEKSIEVETKTDTSEKPKNQLWPESSTSDVVRDDILLLKNEIQVLQQQNQELKETEGKLRNTNQDLCNQMRQMVQDFDHDKQEAVDRCERTYQQHHEAMKTQIRESLLAKHALEKQQLFEAYERTHLQLRSELDKLNKEVTAVQECYLEVCREKDNLELTLRKTTEKEQQTQEKIKEKLIQQLEKEWQSKLDQTIKAMKKKTLDCGSQTDQVTTSDVISKKEMAIMIEEQKCTIQQNLEQEKDIAIKGAMKKLEIELELKHCENITKQVEIAVQNAHQRWLGELPELAEYQALVKAEQKKWEEQHEVSVNKRISFAVSEAKEKWKSELENMRKNILPGKELEEKIHSLQKELELKNEEVPVVIRAELAKARSEWNKEKQEEIHRIQEQNEQDYRQFLDDHRNKINEVLAAAKEDFMKQKTELLLQKETELQTCLDQSRREWTMQEAKRIQLEIYQYEEDILTVLGVLLSDTQKEHISDSEDKQLLEIMSTCSSKWMSVQYFEKLKGCIQKAFQDTLPLLVENADPEWKKRNMAELSKDSASQGTGQGDPGPAAGHHAQPLALQATEAEADKKKVLEIKDLCCGHCFQELEKAKQECQDLKGKLEKCCRHLQHLERKHKAVVEKIGEENNKVVEELIEENNDMKNKLEELQTLCKTPPRSLSAGAIENACLPCSGGALEELRGQYIKAVKKIKCDMLRYIQESKERAAEMVKAEVLRERQETARKMRKYYLICLQQILQDDGKEGAEKKIMNAASKLATMAKLLETPISSKSQSKTTQSALPLTSEMLIAVKKSKRNDVNQKIPCCIESKSNSVNTITRTLCEQAPKRRAACNLQRLLENSEHQSIKHVGSKETHLEFQFGDGSCKHLNSLPRNVSPEFVPCEGEGGFGLHKKKDLLSDNGSESLPHSAAYPFLGTLGNKPSPRCTPGPSESGCMHITFRDSNERLGLKVYKCNPLMESENAASEKSQGLDVQEPPVKDGGDLSDCLGWPSSSATLSFDSREASFVHGRPQGTLEIPSESVKSKQFSPSGYLSDTEESNMICQTMKCQRYQTPYLSEETTYLEPGKISVNCGHPSRHKADRLKSDFKKLSSTLPSSVCQQPSRKLIVPLSSQQDSGFDSPFVNLD

Variants of: B1
assayRemarks: co-immunoprecipitation (IP against Flag tag, Western blot quantification); HEK293T cells, 48 h overexpression, N = 3; read off a plot

variantId | ratio to parent
chain 1 R691A | ~0.83
chain 1 K608A | ~0.16
chain 1 K699A | ~0.09
chain 1 I602E | ~0.03
